# testSystem: Serine/threonine-protein kinase B-raf (Homo sapiens, UniProt P15056, V600E)
# Sequence (P15056 2-766 V600E limits assumed): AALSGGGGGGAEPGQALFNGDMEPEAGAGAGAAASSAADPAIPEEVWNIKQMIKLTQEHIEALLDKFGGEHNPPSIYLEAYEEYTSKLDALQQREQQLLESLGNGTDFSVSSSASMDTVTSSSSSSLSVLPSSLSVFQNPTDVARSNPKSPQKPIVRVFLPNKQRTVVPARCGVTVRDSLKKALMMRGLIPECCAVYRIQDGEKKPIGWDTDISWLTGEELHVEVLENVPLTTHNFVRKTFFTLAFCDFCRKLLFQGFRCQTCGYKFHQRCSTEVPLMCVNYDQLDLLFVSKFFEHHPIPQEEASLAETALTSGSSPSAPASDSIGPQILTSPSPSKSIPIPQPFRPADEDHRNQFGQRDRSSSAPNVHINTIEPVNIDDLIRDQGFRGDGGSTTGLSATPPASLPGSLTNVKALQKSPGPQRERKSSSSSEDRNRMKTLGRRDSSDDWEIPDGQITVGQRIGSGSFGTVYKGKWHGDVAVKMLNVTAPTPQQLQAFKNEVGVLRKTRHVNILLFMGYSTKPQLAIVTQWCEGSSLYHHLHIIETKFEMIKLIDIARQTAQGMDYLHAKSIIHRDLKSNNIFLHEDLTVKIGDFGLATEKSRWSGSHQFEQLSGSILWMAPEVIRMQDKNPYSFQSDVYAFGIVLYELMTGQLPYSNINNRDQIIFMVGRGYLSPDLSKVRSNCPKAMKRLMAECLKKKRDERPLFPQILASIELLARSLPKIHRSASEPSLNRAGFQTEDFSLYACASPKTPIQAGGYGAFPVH
# testSummary: Inhibition of BRAF V600E mutant (unknown origin)
measuredMetric: IC50 (nM)
Quick note: give the figure in nM, leave out the unit.

State its IC50 on Serine/threonine-protein kinase B-raf (Homo sapiens, UniProt P15056, V600E): N#CC1(c2cccc(C(=O)Nc3cc(Oc4ccc5nc(NC(=O)C6CC6)sc5n4)ccc3F)c2Cl)CC1
5.6

====

# testSystem: RAF proto-oncogene serine/threonine-protein kinase (Homo sapiens, UniProt P04049)
# Sequence (P04049 whole entry): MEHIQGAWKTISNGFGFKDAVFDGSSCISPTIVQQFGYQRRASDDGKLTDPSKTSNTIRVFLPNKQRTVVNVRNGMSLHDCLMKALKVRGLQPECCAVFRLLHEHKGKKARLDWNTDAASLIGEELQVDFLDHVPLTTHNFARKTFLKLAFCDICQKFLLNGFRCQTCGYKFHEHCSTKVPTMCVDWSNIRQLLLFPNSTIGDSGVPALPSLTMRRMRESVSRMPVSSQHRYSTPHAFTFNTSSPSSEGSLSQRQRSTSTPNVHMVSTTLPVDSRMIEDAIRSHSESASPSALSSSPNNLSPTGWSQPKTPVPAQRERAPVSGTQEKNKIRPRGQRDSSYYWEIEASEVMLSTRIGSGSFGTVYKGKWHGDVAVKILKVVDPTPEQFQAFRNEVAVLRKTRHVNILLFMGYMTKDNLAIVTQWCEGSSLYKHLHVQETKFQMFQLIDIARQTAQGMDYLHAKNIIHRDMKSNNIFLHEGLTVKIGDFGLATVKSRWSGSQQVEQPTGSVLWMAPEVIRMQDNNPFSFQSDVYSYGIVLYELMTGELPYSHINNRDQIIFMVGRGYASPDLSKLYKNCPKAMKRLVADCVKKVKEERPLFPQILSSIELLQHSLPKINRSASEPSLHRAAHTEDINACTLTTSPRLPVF
# testSummary: Inhibition of CRAF (unknown origin) in presence of 1000 uM ATP by ELISA
measuredMetric: pIC50
pIC50 is defined as minus the log10 of a concentration measured in mol/L.

Please give the measured pIC50 for this compound: N#Cc1c(Oc2ccc(F)c(NC(=O)Cc3cccc(C(F)(F)F)c3)c2)ccc2nc(NC(=O)C3CC3)sc12
7.21
